- System: biotinyl-Ile-oxazolone
- experiment: self-aminoacylation, catalytic enhancement (BIO) (fold over background); higher = more active; k-Seq, kA / k0A0; sequences stand for … in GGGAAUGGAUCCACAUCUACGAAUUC…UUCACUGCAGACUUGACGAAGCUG
This sample holds only a part of the variants without activity.
measured-endpoint: self-aminoacylation
One number for each entry.

The cases that follow already have their self-aminoacylation on record.
AUUAACCUAGGUCAGCGGGUG [Fam2.2 aminoacylation ribozyme variant] :: 2.5
CCACACUUCAAGCAAUCUAUC [Fam1B.1 aminoacylation ribozyme variant] :: 0.557
CUACUUCAAACAAUCGCUCUA [Fam1A.1 aminoacylation ribozyme variant] :: 0.862

Please look at the items below and tell me self-aminoacylation for each one, in order.
1. CUACUUCAAACAUUCCGUCUG [Fam1A.1 aminoacylation ribozyme variant]
2. ACACACUUAAAGCAAUCGGUC [Fam1B.1 aminoacylation ribozyme variant]
3. CUACUUCAAACAAGCGUUCUG [Fam1A.1 aminoacylation ribozyme variant]
4. AUUACCCUGGUCUUCUAGUGA [Fam2.1 aminoacylation ribozyme variant]
5. AAGUUUGCUAAUAGUCGGAAG [Fam3.1 aminoacylation ribozyme variant]

Return:
[1.15, 1.08, 0.481, 2.92, 1.13]

Recorded values, source the supplement of paper PMC9233669.
